- STUDY_TARGET: T1, GPC3 endogenously expressed on HepG2 cells (UniProt P51654 25-554)
- T1 construct: whole, on cells
- ASSAY_PROCEDURE: FACS on HepG2 cells;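 further: flow cytometric binding of chimeric antibodies to cells, read as mean fluorescence intensity, EC50 obtained by curve fitting of the MFI data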
PROPERTY: Max MFI (MFI)
Only the number, expressed in MFI, is required.

Here are 2 binders together with their reported answers.
BINDER	Max MFI, MFI
F1.62.9 human-murine chimeric antibody (antibody, human IgG1, kappa, V domains shown) VH: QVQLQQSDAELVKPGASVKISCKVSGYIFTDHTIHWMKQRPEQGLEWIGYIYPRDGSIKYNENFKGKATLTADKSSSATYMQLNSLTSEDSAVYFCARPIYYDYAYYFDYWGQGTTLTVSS VL: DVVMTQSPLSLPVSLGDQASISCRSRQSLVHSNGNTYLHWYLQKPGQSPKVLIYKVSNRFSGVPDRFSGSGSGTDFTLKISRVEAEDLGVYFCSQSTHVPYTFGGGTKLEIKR	3250
F3.81.19 human-murine chimeric antibody (antibody, human IgG1, kappa, V domains shown) VH: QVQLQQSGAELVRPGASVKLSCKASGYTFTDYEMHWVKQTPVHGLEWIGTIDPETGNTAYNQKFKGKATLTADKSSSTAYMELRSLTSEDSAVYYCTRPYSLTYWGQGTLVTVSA VL: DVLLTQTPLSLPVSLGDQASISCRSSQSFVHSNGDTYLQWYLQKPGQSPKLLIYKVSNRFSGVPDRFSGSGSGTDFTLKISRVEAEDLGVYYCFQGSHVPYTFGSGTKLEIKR	5740

## Task Query: Max MFI; subject: F1.145.22 human-murine chimeric antibody (antibody, human IgG1, kappa, V domains shown) VH: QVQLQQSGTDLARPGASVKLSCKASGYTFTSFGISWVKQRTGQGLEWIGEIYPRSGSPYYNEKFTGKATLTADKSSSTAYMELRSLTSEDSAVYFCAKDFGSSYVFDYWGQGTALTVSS VL: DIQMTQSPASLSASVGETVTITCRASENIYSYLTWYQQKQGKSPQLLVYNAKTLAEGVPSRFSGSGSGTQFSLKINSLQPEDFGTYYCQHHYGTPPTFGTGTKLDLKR
## Result 2160

Data provenance is patent US20260116991A1.
